Each recorded value in this set is attributed to paper PMC11969024.

B1: peptide HD2 (from tick evasin EVA4) / CCL8 (biotinylated, synthetic) (parent)
chain 1: EEDDYTAYAPLTCYFT
chain 2: QPDSVSIPITCCFNVINRKIPIQRLESYTRITNIQCPKEAVIFKTKRGKEVCADPKERWVRDSMKHLDQIFQNLKP

- Variants of: B1
- measurement-parameters: with CCL8 (biotinylated, synthetic); scale: log2
Collected enrichment values appear next to each entry.

Would you please look over these solved cases?
Report enrichment for chain 1 Y5Q please.
-4.88

Report enrichment for chain 1 P10K please.
-6.48

Report enrichment for chain 1 L11P please.
-7.62

Report enrichment for chain 1 P10F please.
-8.93

Report enrichment for chain 1 Y8K please.
-5.59

Report enrichment for chain 1 Y8G please.
-8.23

Further cases:
Report enrichment for chain 1 C13P please.
-9.12

Report enrichment for chain 1 E2C please.
-9.53

Report enrichment for chain 1 P10I please.
-7.96

Report enrichment for chain 1 Y8Q please.
-5.88

Report enrichment for chain 1 P10V please.
-9.9

Report enrichment for chain 1 Y8P please.
-7.38

Report enrichment for chain 1 Y5R please.
-6.57

Report enrichment for chain 1 Y8E please.
-5.7

Report enrichment for chain 1 P10H please.
-7.47

Report enrichment for chain 1 P10M please.
-8.02

Report enrichment for chain 1 Y5K please.
-5.12

Report enrichment for chain 1 A9P please.
-7.32
